Target: UniProt Q9BQF6
Sequence (Q9BQF6 whole entry): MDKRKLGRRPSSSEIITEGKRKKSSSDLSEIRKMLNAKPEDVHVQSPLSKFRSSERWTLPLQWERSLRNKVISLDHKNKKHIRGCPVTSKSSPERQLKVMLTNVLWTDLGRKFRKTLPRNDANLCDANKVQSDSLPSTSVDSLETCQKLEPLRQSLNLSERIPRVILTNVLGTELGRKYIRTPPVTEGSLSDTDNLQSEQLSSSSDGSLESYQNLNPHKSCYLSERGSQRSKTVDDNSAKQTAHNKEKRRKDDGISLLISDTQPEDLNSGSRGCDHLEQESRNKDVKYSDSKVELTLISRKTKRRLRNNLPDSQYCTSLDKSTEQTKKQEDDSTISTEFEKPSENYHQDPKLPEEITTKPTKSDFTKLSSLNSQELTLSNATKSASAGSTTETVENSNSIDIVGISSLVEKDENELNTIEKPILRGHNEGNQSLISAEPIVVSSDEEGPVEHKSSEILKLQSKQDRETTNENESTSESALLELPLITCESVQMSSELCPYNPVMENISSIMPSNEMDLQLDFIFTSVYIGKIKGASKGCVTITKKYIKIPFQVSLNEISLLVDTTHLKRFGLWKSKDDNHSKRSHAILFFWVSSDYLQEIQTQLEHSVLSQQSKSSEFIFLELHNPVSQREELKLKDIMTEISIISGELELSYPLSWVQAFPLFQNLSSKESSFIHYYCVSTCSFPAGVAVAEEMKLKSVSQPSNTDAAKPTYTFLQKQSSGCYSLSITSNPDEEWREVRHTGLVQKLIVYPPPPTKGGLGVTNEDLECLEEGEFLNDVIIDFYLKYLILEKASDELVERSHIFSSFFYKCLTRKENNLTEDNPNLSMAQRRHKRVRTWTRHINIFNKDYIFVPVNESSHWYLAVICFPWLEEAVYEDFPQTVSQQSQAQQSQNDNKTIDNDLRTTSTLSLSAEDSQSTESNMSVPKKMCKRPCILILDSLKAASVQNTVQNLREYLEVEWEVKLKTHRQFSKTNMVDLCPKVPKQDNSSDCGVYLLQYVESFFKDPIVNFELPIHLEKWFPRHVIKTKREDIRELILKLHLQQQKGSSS
Assay: SENP7 protease inhibitors, SAR follow-up, biochemical, luminescence (AID 504497)
Type: functional
Activity calls are given as the source filed them.
I'd appreciate it if you could supply IC50 values for the items below.

Query: Field request: IC50 | item: CCOc1ccc(C(=O)Nc2ccc3ccccc3c2)cc1Br
Reply: > 99 µM (inactive)

// input: 3 compounds below; output: IC50 for each
1. COc1ccc(/C=N/Nc2nc(NCc3ccccc3)nc(N(C)C)n2)cc1Br
2. C(/C=C/c1ccccc1)=N/Nc1cc(N2CCCC2)nc(N2CCCC2)n1
3. COc1cc(Br)c(C(=O)c2nccc3cc(OC)c(OC)cc23)cc1OC

Reply:
1. > 99 µM (inactive)
2. 32.9 µM (active)
3. 2.99 µM (active)

---

biological target: FAD-linked sulfhydryl oxidase ALR (Homo sapiens); test: inhibitors of human ALR sulfhydryl oxidase, dose response, biochemical, H2O2 detection, luminescence, cherry-pick (AID 493248)
Sequence (P55789 whole entry): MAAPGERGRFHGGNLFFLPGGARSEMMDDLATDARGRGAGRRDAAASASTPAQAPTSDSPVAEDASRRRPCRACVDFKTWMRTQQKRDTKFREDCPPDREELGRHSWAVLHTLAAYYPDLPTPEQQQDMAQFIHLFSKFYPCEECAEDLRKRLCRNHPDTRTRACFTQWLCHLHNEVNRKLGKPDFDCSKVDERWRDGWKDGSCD
Activity calls are given as the source filed them.
I'd appreciate it if you could supply AC50 values for the items below.

Reference set, count: 8
Query: # value lookup — system FAD-linked sulfhydryl oxidase ALR (Homo sapiens), readout AC50, item COc1ccc(N2CCN(C(=O)CCNC(=O)c3ccc(C(C)(C)C)cc3)CC2)cc1
Reply: 10.1 µM (active)

Query: # value lookup — system FAD-linked sulfhydryl oxidase ALR (Homo sapiens), readout AC50, item Oc1ccccc1-c1nnc(S)n1Cc1ccco1
Reply: 4.75 µM (active)

Query: # value lookup — system FAD-linked sulfhydryl oxidase ALR (Homo sapiens), readout AC50, item COc1cc(C)c(N)cc1C(C)C
Reply: 0.027 µM (active)

Query: # value lookup — system FAD-linked sulfhydryl oxidase ALR (Homo sapiens), readout AC50, item C/C(=N\C1CCCC1)c1c(C)[nH]n(-c2nc3ccccc3s2)c1=O
Reply: 1.24 µM (active)

Query: # value lookup — system FAD-linked sulfhydryl oxidase ALR (Homo sapiens), readout AC50, item Cc1cc2c(cc(C(=O)O)n2C)s1
Reply: 30.9 µM (active)

Query: # value lookup — system FAD-linked sulfhydryl oxidase ALR (Homo sapiens), readout AC50, item COc1cc(OC)cc(C(=O)Nc2ccc(S(=O)(=O)Nc3cc(C)nc(C)n3)cc2)c1
Reply: 1.68 µM (active)

Query: # value lookup — system FAD-linked sulfhydryl oxidase ALR (Homo sapiens), readout AC50, item CC1CCN(C(=S)c2ccc(N(C)C)cc2)CC1
Reply: 0.915 µM (active)

Query: # value lookup — system FAD-linked sulfhydryl oxidase ALR (Homo sapiens), readout AC50, item Cc1ccc(-c2cn3c(n2)SCC3)cc1
Reply: 0.513 µM (active)

// input: 2 molecules below; output: AC50 for each
1. CCN(CC)c1ccc(NC(=O)CN2CCN(c3nc(C)cc(C)n3)CC2)cc1
2. Nc1ccc(-c2nc3c(Cl)cc(N)cc3[nH]2)cc1

Reply:
1: 1.03 µM (active); 2: 0.556 µM (active)

// input: 2 molecules below; output: AC50 for each
1. Cc1c(C(=O)N(C)C)c2cc(Cl)ccc2n1O
2. Cc1csc(Nc2ccccc2)[n+]1-c1ccccc1

Reply:
["0.722 µM (active)", "1.14 µM (active)"]

---

Biological target: Leucine aminopeptidase (Plasmodium falciparum 3D7, UniProt Q8IL11)
Sequence (Q8IL11 whole entry): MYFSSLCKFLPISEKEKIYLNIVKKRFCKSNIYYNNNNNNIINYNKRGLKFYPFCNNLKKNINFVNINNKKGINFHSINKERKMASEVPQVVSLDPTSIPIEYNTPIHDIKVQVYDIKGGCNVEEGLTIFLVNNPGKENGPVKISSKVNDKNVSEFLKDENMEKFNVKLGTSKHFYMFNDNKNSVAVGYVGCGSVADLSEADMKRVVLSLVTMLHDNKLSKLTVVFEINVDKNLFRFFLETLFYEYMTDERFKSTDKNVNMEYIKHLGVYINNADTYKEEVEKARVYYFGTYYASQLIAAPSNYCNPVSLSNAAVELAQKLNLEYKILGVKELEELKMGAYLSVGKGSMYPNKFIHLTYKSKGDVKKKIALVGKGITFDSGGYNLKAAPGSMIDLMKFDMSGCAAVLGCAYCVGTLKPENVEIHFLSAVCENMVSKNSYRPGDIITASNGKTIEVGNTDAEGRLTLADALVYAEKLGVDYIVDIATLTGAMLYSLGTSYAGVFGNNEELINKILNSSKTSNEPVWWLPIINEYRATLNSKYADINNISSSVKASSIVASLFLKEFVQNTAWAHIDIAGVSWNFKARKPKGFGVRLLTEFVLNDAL
Test: P. falciparum M17LAP inhibitors, primary screen, biochemical, fluorogenic H-Leu-NHMec substrate, 1536-well (AID 1619)
Format: functional
Calls of active or inactive are those of the source.
I'd appreciate it if you could supply IC50 values for the items below.

Reference set, count: 4
Query: # value lookup — system Leucine aminopeptidase (Plasmodium falciparum 3D7, UniProt Q8IL11), readout IC50, item Cc1ccc(C(=O)CSc2nnc[nH]2)cc1
Reply: 50.5 µM (active)

Query: # value lookup — system Leucine aminopeptidase (Plasmodium falciparum 3D7, UniProt Q8IL11), readout IC50, item Cc1c(Cl)cccc1NC(=O)CSCc1cc(=O)[nH][nH]1
Reply: 62.3 µM (active)

Query: # value lookup — system Leucine aminopeptidase (Plasmodium falciparum 3D7, UniProt Q8IL11), readout IC50, item COc1ccc(C(C)(C)C)cc1NC(=O)C1CC=CCC1C(=O)O (stereo not given)
Reply: 3.05 µM (active)

Query: # value lookup — system Leucine aminopeptidase (Plasmodium falciparum 3D7, UniProt Q8IL11), readout IC50, item COC(=O)c1cccc(NC(=O)CSc2nc(C)cc(O)n2)c1
Reply: 7.51 µM (active)

// moving on: another record for IC50
Query: # value lookup — system Leucine aminopeptidase (Plasmodium falciparum 3D7, UniProt Q8IL11), readout IC50, item O=C1C(C2=NC(C(=O)O)C3C(=O)N(c4ccc(Cl)cc4)C(=O)C23)=C(O)c2ccccc21 (stereo not given)
Reply: 71.6 µM (active)

---

target: Short transient receptor potential channel 4 (Mus musculus); assay: mouse TRPC4 channel inhibitors, dose response, cell-based, HEK293 TRPC4/mu-opioid, Fluo-4 calcium (AID 434942); type: functional;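 also: potency of inhibitors blocking the TRPC4 calcium response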
Sequence (Q9QUQ5 whole entry): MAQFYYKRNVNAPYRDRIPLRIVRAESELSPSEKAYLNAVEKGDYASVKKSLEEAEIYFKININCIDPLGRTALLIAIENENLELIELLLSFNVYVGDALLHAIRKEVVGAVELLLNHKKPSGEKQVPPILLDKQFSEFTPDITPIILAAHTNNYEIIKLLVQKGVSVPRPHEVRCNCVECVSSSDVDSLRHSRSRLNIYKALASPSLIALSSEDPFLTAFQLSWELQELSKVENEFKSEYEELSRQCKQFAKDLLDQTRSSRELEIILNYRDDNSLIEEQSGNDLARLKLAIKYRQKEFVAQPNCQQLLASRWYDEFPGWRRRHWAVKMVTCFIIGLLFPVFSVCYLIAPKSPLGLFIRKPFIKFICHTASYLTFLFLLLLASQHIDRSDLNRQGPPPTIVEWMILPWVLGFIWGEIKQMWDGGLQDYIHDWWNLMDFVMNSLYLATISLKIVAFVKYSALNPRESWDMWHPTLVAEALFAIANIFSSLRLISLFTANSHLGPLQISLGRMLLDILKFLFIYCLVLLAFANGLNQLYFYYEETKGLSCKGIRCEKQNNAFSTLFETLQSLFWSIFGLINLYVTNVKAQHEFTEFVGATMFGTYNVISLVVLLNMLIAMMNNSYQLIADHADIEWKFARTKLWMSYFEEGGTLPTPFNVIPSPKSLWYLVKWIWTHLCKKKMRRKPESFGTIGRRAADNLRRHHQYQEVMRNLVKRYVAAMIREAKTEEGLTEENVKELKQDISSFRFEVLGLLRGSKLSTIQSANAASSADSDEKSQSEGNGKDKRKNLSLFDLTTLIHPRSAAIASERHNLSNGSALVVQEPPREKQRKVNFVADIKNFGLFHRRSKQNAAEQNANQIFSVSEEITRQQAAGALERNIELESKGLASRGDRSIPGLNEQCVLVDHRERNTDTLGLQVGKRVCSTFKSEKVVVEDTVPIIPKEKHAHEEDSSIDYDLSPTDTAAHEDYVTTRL
Activity calls are given as the source filed them.
TEST_READOUT: EC50

// input: 6 compounds below; output: EC50 for each
1. COc1cccc(C2=NN(C(=O)c3ccco3)C(c3ccco3)C2)c1 (configuration not stated)
2. COc1cccc2cc(C(N)=O)/c(=N\NC(=O)c3ccccc3)oc12
3. Cc1ccc(-n2cccn2)c(CN2CCCC(C(=O)c3ccc4c(c3)OCO4)C2)c1 (configuration not stated)
4. Cc1nc2ccccc2n1CCOc1ccc(F)cc1
5. CCOC(=O)C1(CC2CC2)CCN(Cc2ccc3cccc(F)c3n2)CC1
6. Cc1ccn2c(-c3csc(NCc4ccco4)n3)c(C)nc2c1

Reply:
1. 1880 nM (active)
2. 188 nM (active)
3. 7500 nM (active)
4. 376 nM (active)
5. 841 nM (active)
6. 1500 nM (active)

Query: Field request: EC50 | item: O=C(COC(=O)C1CC1)Nc1nc(-c2ccc(F)c(F)c2)cs1
Reply: 2990 nM (active)
